- TESTED_SYSTEM: Tumor necrosis factor (Homo sapiens, UniProt P01375)
- Sequence (P01375 whole entry): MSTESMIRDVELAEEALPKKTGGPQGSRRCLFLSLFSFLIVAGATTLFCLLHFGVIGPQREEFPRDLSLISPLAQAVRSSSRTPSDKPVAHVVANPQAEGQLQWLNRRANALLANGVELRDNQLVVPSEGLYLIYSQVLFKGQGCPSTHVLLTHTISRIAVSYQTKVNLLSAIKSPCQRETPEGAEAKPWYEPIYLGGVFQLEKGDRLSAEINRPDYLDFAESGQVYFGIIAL
- ASSAY: Inhibition of LPS-induced TNF-alpha production in human PBMC preincubated for 30 mins followed by LPS addition measured after 5 hrs by ELISA
Task for the reader: assign each of the following molecules its reported IC50.
Give the number; µM is assumed, so skip it.

Query :: GET /values?readout=IC50&item= COc1ccc(-c2ccc3ncc(S(=O)(=O)NCC4CCCO4)n3n2)cn1 (stereo not given)
Result :: 6

Query :: Field entry: `O=S(=O)(c1cnc2ccc(Cl)nn12)N1CCN(Cc2ccccc2)CC1`
Result :: 30

Query :: Item: `CCN1CCN(S(=O)(=O)c2cnc3ccc(-c4ccc(S(C)(=O)=O)cc4)nn23)CC1`
Result :: 15
